Test: chemical genetic growth profiling, strain panel (AID 1159580);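 further: tested at 20 µM; growth read once vehicle control cultures reached saturation at 30 °C; lower values mean less growth of the strain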
Settings: S. cerevisiae deletion strains, growth OD, locus YBL061C, strain skt5
The whole screen tested about 5,500 compounds, of which about 2,000 (36%) were called active. Not shown: some 18% with an inconclusive outcome. No stated cut-off is given here; in the data, active means normalized growth mostly below about 0.91 (no sharp cut-off); inconclusive means no clear call, values can overlap the other calls; inactive means mostly above about 0.92. Some of the results follow.
Select the matching outcome among y for active, n for inactive

COc1ccc2c(=O)c(-c3cc4c(cc3OC)OCO4)coc2c1
n
Cc1cc(O)c2c(c1O)C(=O)c1c(O)cc(C)c(O)c1C2=O
n
CN1Cc2c(N)cccc2C(c2ccccc2)C1 (configuration not stated)
n

What is the recorded call for this compound in the test? CCCCC(=O)N(Cc1ccc(-c2ccccc2-c2nn[nH]n2)cc1)[C@H](C(=O)O)C(C)C n

Which outcome was assigned to COc1cc2c(cc1-c1coc3c4c(c(OC)cc3c1=O)OC(C)(C)C=C4)OCO2 in this test? n

Please let me know the test result on file for COc1cc2ccc(=O)oc2c2ccoc12 . n

Which result was noted for this compound in the test: C[C@]12CCC3C(CC[C@H]4C[C@@H](O)CC[C@]34C)C1CCC2=O (some centres not stated) n

I would be grateful if you could indicate the recorded call for COc1cc(OC)c2c(=O)c(-c3ccc4c(c3)OCO4)coc2c1 . n

Hello, I am checking results. What call was entered for CC1(C)C=Cc2c(cc3occ(-c4ccc5c(c4)OCO5)c(=O)c3c2O)O1 ? y

How was O=C1c2ccccc2C(=O)c2c(O)c(O)cc(O)c21 classified in this test? y
